molecular target: recombinant human SYK360-635 (Homo sapiens); construct: made in house; experiment: Determination of IC50 of Spleen Tyrosine Kinase (SYK) inhibition, 33P ATP filtration assay; type: biochemical; details: SYK aa 360-635 0.5 nM; ATP 20 μM, peptide 5 μM, 0.1% BSA; read-out: SYK_ENZYME_FILTRATION/v1, BSA
experimental.endpoint: IC50 (nM)

Cn1nc(-c2cnc3[nH]cc(C(=O)N[C@H]4CC[C@@H](O)CC4)c3n2)c2ccc(Cl)cc21 : 9.7
CC(C)NC(=O)c1c[nH]c2ncc(-c3nn(CCCN4CCOCC4)c4cc(Cl)cc(F)c34)nc12 : 23.4
Cn1nc(-c2cnc3[nH]cc(C(=O)NC4CCCC(N)C4)c3n2)c2ccc(Cl)cc21 (stereo not shown) [Example I-403] : 13.6

----------
target: recombinant human SYK360-635 (Homo sapiens, UniProt P43405); construct: made in house; assay: Determination of IC50 of Spleen Tyrosine Kinase (SYK) inhibition, 33P ATP filtration assay; format: biochemical; details: SYK aa 360-635 0.5 nM; ATP 20 μM, peptide 5 μM, 0.1% BSA; read-out: SYK_ENZYME_FILTRATION/v1, BSA
Label TRUE when IC50 < 50 nM; otherwise FALSE.

Cc1nn(-c2cnc3[nH]cc(C(=O)NC(C)(C)CO)c3n2)c2ccc(Cl)cc12 : TRUE
Cn1c2c(c(-c3cnc4[nH]cc(C(=O)NC(C)(C)C)c4n3)[n+]1[O-])CCCC2 : FALSE
COC[C@H](CC(C)C)NC(=O)c1c[nH]c2ncc(-c3nn(C)c4cc(F)ccc34)nc12 : FALSE
Cc1ccc2c(-c3cnc4[nH]cc(C(=O)NC(C)(C)CN(C)C)c4n3)n[nH]c2c1 : TRUE
CCCC(C)NC(=O)c1c[nH]c2ncc(-c3nn(C)c4cc(F)ccc34)nc12 (centres unmarked) : TRUE
CCC(C)(C)NC(=O)c1c[nH]c2ncc(-c3nn(C)c4cc(F)ccc34)nc12 : TRUE
Cn1nc(-c2cnc3[nH]cc(C(=O)NC4(C)CNC4)c3n2)c2ccc(F)cc21 : FALSE
Cc1ccc2cnn(-c3cnc4[nH]cc(C(=O)NC(C)(C)C)c4n3)c2c1 : FALSE

----------
biological target: recombinant human SYK360-635 (Homo sapiens, UniProt P43405); construct: made in house; assay: Determination of IC50 of Spleen Tyrosine Kinase (SYK) inhibition, 33P ATP filtration assay; assay type: biochemical; details: SYK aa 360-635 0.5 nM; ATP 20 μM, peptide 5 μM, 0.1% BSA; read-out: SYK_ENZYME_FILTRATION/v1, BSA
pIC50: −log10 of the molar value.
Assign Yes to entries whose pIC50 meets or exceeds 8; assign No to the rest.

COc1ccc2c(c1)c(-c1cnc3[nH]cc(C(=O)NC(C)(C)C)c3n1)nn2C [Example I-287] : Yes
CC[C@H](CO)NC(=O)c1c[nH]c2ncc(-c3nn(C)c4cc(Cl)ccc34)nc12 [Example I-161] : No
C[C@H](NC(=O)c1c[nH]c2ncc(-c3nn(C)c4cc(F)ccc34)nc12)c1cccc(OC(F)(F)F)c1 [Example I-253] : No
Cn1nc(-c2cnc3[nH]cc(C(=O)NC(C)(C)C)c3n2)c2ccc(C#N)cc21 [Example I-394] : Yes
Cn1nc(-c2cnc3[nH]cc(C(=O)NC4(C)CC4)c3n2)c2ccc(F)cc21 [Example I-378] : Yes
COCC(COC)NC(=O)c1c[nH]c2ncc(-c3nn(C)c4cc(Cl)ccc34)nc12 [Example I-166] : No
CC(C)NC(=O)c1c[nH]c2ncc(-c3nn(C4COC4)c4cc(F)ccc34)nc12 [Example I-102] : No
Cn1nc(-c2cnc3[nH]cc(C(=O)NC(C)(C)C(=O)O)c3n2)c2ccc(F)cc21 [Example I-382] : No
CC(NC(=O)c1c[nH]c2ncc(-c3nn(C)c4cc(Cl)ccc34)nc12)C1CCCO1 (stereo not shown) [Example I-154] : No
COc1ccc2c(cnn2-c2cnc3[nH]cc(C(=O)NC(C)(C)C)c3n2)c1 [Example I-323] : No
Cn1nc(-c2cnc3[nH]cc(C(=O)NC4CCOC4)c3n2)c2ccc(Cl)cc21 (stereo not shown) [Example I-107] : No

----------
Quick reference for pIC50 among some compounds
target: JAK3: Recombinant human kinase domain (Homo sapiens, UniProt P52333); construct: JAK3: Recombinant human kinase domain from Millipore (Cat #14-629) or prepared; assay: Determination of IC50 of Janus Kinase (JAK) inhibition, radioactive end-point 33P-ATP assay, JAK3; settings: ATP 1.5 uM, peptide 50 uM, 20 minutes, read-out: JAK3-INHIB-DR/v1~NO ADDITIVE~Enzyme_Conc = 100
Sequence (P52333 822-1111 limits assumed): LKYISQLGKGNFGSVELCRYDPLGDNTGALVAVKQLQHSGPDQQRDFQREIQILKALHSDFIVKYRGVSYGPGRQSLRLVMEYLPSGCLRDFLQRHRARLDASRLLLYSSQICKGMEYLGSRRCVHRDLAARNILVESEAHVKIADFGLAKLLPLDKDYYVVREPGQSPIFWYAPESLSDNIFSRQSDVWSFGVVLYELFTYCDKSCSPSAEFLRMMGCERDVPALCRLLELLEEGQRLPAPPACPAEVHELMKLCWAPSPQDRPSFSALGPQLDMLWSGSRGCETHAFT
pIC50: −log10 of the molar value.
experimental.endpoint: pIC50

Cn1nc(-c2cnc3[nH]cc(C(=O)NC4(CO)CCOCC4)c3n2)c2cc(OC(F)F)ccc21 : 6.13
COC[C@H](C)NC(=O)c1c[nH]c2ncc(-c3nn(Cc4ccccn4)c4cc(F)ccc34)nc12 : 9.21
Cn1nc(-c2cnc3[nH]cc(C(=O)NC(C)(C)C)c3n2)c2cc(OC(F)F)ccc21 : 7.15
C[C@H](CCC#N)NC(=O)c1c[nH]c2ncc(-c3nn(C)c4cc(Cl)ccc34)nc12 : 7.74

----------
Listed below: IC50 values for each entry.
molecular target: recombinant human SYK360-635 (Homo sapiens); construct: made in house; assay: Determination of IC50 of Spleen Tyrosine Kinase (SYK) inhibition, 33P ATP filtration assay; format: biochemical; settings: SYK aa 360-635 0.5 nM; ATP 20 μM, peptide 5 μM, 0.1% BSA; read-out: SYK_ENZYME_FILTRATION/v1, BSA
experimental.endpoint: IC50

CONC(=O)c1c[nH]c2ncc(-c3nn(C)c4cc(F)ccc34)nc12 : 214 nM
Cn1nc(-c2cnc3[nH]cc(C(=O)NC(C)(C)CCN)c3n2)c2ccc(F)cc21 : 322 nM
COc1ccc2c(c1)c(-c1cnc3[nH]cc(C(=O)NC(C)(C)CO)c3n1)nn2C : 7.95 nM
Cn1nc(-c2cnc3[nH]cc(C(=O)N[C@H]4CC[C@@H](O)C4)c3n2)c2ccc(F)cc21 (relative stereo) : 10.3 nM
Cc1ccc2c(-c3cnc4[nH]cc(C(=O)NC5(C)CCNC5)c4n3)n[nH]c2c1 (stereo not shown) : 20.7 nM
C[C@@H](O)[C@@H](NC(=O)c1c[nH]c2ncc(-c3nn(C)c4cc(F)ccc34)nc12)C(=O)N1CC(F)C1 : 120 nM
CC(NC(=O)c1c[nH]c2ncc(-c3nn(C)c4cc(F)ccc34)nc12)c1ccno1 (stereo not shown) : 56.4 nM

----------
target: JAK3: Recombinant human kinase domain (Homo sapiens); construct: JAK3: Recombinant human kinase domain from Millipore (Cat #14-629) or prepared; assay: Determination of IC50 of Janus Kinase (JAK) inhibition, radioactive end-point 33P-ATP assay, JAK3; conditions: ATP 1.5 uM, peptide 50 uM, 20 minutes, read-out: JAK3-INHIB-DR/v1~NO ADDITIVE~Enzyme_Conc = 100
pIC50: −log10 of the molar value.
experimental.endpoint: pIC50

Cc1cc(Cn2nc(-c3cnc4[nH]cc(C(=O)NC(C)C)c4n3)c3ccc(Cl)cc32)no1 : 8.08
CO[C@@H](C)CNC(=O)c1c[nH]c2ncc(-c3nn(C)c4cc(F)ccc34)nc12 : 8.16
Cn1nc(-c2cnc3[nH]cc(C(=O)N[C@@H]4CCC[C@@H](O)C4)c3n2)c2ccc(Cl)cc21 (relative stereo) : 7.26
C[C@@H](NC(=O)c1c[nH]c2ncc(-c3nn(C)c4cc(C(F)(F)F)ccc34)nc12)C(=O)N1CC(C#N)C1 : 8.94
CC(CC(C)(C)O)NC(=O)c1c[nH]c2ncc(-c3nn(C)c4cc(F)ccc34)nc12 (centres unmarked) : 7.10
Cn1nc(-c2cnc3[nH]cc(C(=O)N[C@@H]4CC[C@@H](C#N)C4)c3n2)c2ccc(Cl)cc21 : 7.72
Cn1nc(-c2cnc3[nH]cc(C(=O)NCC4CC4)c3n2)c2ccc(F)cc21 : 8.07
COC[C@H](C)NC(=O)c1c[nH]c2ncc(-c3nn(CCN4CCOCC4)c4cc(Cl)ccc34)nc12 : 9.09
CC(C)CNC(=O)c1c[nH]c2ncc(-c3nn(C)c4cc(F)ccc34)nc12 : 8.03
Cn1nc(-c2cnc3[nH]cc(C(=O)N[C@@H](C(=O)N4CCC(C#N)CC4)C4CC4)c3n2)c2ccccc21 : 8.76
Cn1nc(-c2cnc3[nH]cc(C(=O)N[C@@H]4CC[C@H](O)C4)c3n2)c2ccc(Cl)cc21 : 8.46
COC[C@@H](NC(=O)c1c[nH]c2ncc(-c3nn(C)c4cc(F)ccc34)nc12)[C@H](C)O : 7.50
C[C@@H](NC(=O)c1c[nH]c2ncc(-c3nn(CCO)c4cc(Cl)ccc34)nc12)C(=O)N1CC(C#N)C1 : 8.42
CC(C)NC(=O)c1c[nH]c2ncc(-c3nn(C4COC4)c4cc(F)ccc34)nc12 : 8.79
CC(C)NC(=O)c1c[nH]c2ncc(-c3nn(C4CNC4)c4cc(F)ccc34)nc12 : 8.25
C[C@H](CN1CC[C@@H](F)C1)NC(=O)c1c[nH]c2ncc(-c3nn(C)c4cc(Cl)ccc34)nc12 : 6.91
Cn1nc(-c2cnc3[nH]cc(C(=O)N[C@@H](C(=O)N4CCC(C#N)CC4)C(C)(C)C)c3n2)c2cc(Cl)ccc21 : 8.55
